experiment: Microsomal stability; format: in vitro ADME, rat; conditions: rat microsomes
PROPERTY: half-life at 1 μM
Please answer using a numeric value trailed by its unit.

Ask | Item under review: C=CC(=O)Nc1cccc(-c2nc(Nc3cccc(N4CCOCC4)c3)nc3[nH]ncc23)c1 [Compound 3] . Reported half-life at 1 μM?
Reply | 14 min

----------
molecular target: HERG channel (Homo sapiens); construct: purchased Invitrogen; host or cells: membrane preparation with overexpressed HERG channels; test: Predictor hERG Fluorescence Polarization Assay; type: binding; settings: membrane preparation with overexpressed HERG channels, 10-point, duplicate
Sequence (Q12809 whole entry): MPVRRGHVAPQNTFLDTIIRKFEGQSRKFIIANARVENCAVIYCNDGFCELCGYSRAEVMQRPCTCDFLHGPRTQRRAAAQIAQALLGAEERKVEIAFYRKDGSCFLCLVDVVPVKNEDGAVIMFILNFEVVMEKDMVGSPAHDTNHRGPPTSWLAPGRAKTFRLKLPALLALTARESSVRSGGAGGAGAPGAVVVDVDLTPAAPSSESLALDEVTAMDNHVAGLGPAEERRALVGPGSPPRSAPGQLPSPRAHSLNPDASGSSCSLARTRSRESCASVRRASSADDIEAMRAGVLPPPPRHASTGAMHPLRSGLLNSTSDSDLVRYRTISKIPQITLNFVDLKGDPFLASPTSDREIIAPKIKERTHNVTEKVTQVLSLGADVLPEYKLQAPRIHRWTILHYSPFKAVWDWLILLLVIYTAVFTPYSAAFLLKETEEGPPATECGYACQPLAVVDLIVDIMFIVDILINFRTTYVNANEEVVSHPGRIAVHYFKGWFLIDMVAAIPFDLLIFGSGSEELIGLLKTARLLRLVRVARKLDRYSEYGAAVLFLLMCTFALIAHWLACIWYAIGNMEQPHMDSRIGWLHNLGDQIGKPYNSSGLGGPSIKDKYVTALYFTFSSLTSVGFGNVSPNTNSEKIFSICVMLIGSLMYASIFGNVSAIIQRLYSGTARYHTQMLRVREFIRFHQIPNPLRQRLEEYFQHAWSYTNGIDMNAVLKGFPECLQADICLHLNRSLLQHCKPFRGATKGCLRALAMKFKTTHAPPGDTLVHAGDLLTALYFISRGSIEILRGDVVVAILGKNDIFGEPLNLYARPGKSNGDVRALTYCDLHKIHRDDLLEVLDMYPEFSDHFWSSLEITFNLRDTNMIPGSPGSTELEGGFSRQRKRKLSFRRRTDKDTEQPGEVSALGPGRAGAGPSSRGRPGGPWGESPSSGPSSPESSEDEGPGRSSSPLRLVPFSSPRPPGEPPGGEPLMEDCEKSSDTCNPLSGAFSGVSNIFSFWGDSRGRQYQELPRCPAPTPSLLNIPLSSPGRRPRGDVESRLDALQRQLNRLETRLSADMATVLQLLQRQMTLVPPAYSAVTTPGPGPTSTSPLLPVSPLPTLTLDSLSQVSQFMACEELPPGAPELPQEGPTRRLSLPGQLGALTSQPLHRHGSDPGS
pIC50: −log10 of the molar value.
PROPERTY: pIC50

Ask | Bench note: what pIC50 did C=CC(=O)Nc1cccc(-c2nc(Nc3cccc(N4CCOCC4)c3)nc3[nH]ncc23)c1 show?
Reply | < 5.00
